- Test system: ACHN
- ASSAY SUMMARY: NCI tumour cell line growth inhibition, 48 h
Activity calls are given as the source filed them. Cut-off read from the data, not from the text of the source: active = GI50 up to about 1.1 µM and inactive = higher.
Please answer using one outcome listed in active, inactive

CCOc1cccc2nc3cccc(C(=O)NCCN(C)C)c3nc12
active
CCNC(=O)O/N=C1/C=C2CC[C@@H]3C(CC[C@@]4(C)C3CC[C@@H]4OC(=O)NCC)[C@@]2(C)CC1 (stereo not given in full)
inactive
C[C@@H]1[C@@H](C)C(c2ccccc2)O[Si]1(C(C)(C)C)C(C)(C)C (stereo not given in full)
inactive
Cc1ccc(Cc2n[nH]c(=O)[nH]2)cc1
inactive
CC1=C(C(=O)Nc2ccccc2)C2(CCCCC2)C(C#N)=C(SCC(=O)Nc2ccc(Br)cc2)N1
inactive

Please share the test call associated with COC(=O)Cn1c(=O)oc2nc(-c3ccccc3)cc(C(F)(F)F)c21 .
inactive

Please share the test call associated with CC(=O)N1C(CCc2ccccc2)CC(C)(C=O)C1Cc1ccc(O[Si](C(C)C)(C(C)C)C(C)C)cc1 (stereo not given) .
inactive

The origin of these recorded values is ChEMBL document CHEMBL1201862.
